# TGT: FBXO21 (Homo sapiens)
# Sequence (O94952 1-628): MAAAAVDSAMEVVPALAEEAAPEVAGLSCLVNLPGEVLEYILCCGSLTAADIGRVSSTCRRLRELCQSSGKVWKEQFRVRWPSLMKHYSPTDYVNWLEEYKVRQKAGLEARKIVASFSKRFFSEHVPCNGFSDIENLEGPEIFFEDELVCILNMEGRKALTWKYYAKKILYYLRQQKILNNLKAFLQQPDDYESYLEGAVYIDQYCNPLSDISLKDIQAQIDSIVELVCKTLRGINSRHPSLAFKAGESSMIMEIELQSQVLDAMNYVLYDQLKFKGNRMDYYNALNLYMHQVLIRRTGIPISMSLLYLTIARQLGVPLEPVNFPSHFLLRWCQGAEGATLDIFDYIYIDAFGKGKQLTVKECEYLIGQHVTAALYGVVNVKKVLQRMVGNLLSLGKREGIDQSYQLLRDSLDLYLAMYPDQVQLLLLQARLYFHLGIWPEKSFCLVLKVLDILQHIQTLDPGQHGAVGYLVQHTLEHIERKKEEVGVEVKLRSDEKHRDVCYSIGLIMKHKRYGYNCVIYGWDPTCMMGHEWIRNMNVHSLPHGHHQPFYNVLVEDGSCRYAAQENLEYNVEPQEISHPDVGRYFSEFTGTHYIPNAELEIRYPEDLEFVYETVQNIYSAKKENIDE
PROPERTY_NAME: IC50

Entry under test: O=C(O)Cc1cc(-c2ccc(F)cc2)ccc1-c1ccc(F)cc1 . Its IC50 was 2.4 nM

All figures here come from paper doi:10.1101/2024.12.13.628427v1.
